Known Kd of a selection of substances
molecular target: integrin-αvβ1 (Homo sapiens, UniProt P05556+P06756); experiment: SPR binding of peptides to integrin-αvβ1 (Biacore 8K+); details: Biacore 8K+, 25°C, integrin-αvβ1 on CM5 chip, PBS + 0.05% Tween-20, peptide 0.78-100 μM, Figure 7E, small labels, best readings
Sequence (P06756 31-992 limits assumed): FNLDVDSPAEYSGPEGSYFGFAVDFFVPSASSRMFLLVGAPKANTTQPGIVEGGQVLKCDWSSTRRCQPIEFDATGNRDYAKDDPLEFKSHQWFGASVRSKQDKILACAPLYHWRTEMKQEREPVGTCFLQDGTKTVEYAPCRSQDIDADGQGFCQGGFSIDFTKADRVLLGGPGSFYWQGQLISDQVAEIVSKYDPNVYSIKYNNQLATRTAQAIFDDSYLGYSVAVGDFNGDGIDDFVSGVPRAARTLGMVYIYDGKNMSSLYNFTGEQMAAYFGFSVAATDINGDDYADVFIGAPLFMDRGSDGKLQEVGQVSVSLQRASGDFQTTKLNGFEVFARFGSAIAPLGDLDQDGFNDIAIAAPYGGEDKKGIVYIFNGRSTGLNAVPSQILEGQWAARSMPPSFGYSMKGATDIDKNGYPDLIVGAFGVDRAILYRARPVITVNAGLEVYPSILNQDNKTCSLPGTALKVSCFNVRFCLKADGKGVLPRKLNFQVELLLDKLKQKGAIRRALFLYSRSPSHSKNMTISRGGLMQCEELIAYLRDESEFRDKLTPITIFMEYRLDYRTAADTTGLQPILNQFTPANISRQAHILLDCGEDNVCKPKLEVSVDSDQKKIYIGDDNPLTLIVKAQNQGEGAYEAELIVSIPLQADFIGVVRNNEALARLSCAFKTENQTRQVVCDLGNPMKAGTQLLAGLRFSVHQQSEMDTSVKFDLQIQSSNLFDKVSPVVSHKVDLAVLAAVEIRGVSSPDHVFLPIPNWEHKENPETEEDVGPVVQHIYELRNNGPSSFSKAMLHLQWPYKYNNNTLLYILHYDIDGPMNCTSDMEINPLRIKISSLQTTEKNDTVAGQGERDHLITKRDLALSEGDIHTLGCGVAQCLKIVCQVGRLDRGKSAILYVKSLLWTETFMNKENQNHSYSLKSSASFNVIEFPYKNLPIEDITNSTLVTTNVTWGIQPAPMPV
Sequence (P05556 21-728 partner limits assumed): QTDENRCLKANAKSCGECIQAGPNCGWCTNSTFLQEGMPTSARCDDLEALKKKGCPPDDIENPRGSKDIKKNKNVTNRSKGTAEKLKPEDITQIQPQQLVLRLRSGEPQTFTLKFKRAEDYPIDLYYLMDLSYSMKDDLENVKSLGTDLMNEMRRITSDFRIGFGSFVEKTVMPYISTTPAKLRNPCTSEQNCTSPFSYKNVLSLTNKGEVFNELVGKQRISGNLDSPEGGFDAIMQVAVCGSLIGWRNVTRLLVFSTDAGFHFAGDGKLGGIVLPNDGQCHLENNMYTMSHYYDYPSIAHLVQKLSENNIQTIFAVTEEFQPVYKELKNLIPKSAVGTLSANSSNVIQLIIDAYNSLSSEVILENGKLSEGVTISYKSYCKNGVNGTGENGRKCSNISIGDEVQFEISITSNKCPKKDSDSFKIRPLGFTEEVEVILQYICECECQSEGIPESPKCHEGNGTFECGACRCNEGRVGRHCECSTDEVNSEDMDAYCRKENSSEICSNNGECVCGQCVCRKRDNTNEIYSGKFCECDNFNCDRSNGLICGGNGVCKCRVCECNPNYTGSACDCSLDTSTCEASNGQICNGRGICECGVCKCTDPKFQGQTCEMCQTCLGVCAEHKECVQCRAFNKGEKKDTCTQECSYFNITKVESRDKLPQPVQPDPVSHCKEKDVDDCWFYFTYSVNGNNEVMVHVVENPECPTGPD
I only need the number, in nM, no unit after it.

Below, 2 substances whose answers are already recorded.
Substance	Endpoint Label	Result Value
Ac-GSADPRAVPTEPKKLSPVEESEDITNSTLV-NH2 [CS-10]	Kd	35.4
Ac-NHIPERAGSGSQVPTEPKKLSPVEESEDVSNKVSMTTNVT-NH2 [CS-1]	Kd	12.8

Lookup: Entry Ac-NHIPERAVPTEPKKLSPVEESEDITNSTLVTTNVT-NH2 [CS-4] needs its Kd filled in; supply it.
Found: 32.3

Lookup: Entry Ac-NHIPERAGSGSQVPTEPKKLSPVEESEDWSNKVSM-NH2 [CS-3] needs its Kd filled in; supply it.
Found: 64.9

Lookup: Entry Ac-NHIPERAVPTEPKKLSPVEESEDITNSTLV-NH2 [CS-8] needs its Kd filled in; supply it.
Found: 25.9

Lookup: Entry Ac-NHIPETVEDPEPKKLSPVEESEDITNSTLV-NH2 [CS-9] needs its Kd filled in; supply it.
Found: 10.9

Lookup: Entry Ac-NHIPERAGSGSQVPTEPKKLSPVEESEDRSNKVSM-NH2 [CS-2] needs its Kd filled in; supply it.
Found: 29.1
